Source listed as the supplement of paper PMC10567573.

B1: NECAB1 (parent)
chain: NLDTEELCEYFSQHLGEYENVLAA

Variants of: B1
Assay: protein stability index of a GFP-peptide fusion (GPS, HEK-293T) (PSI 1-6); higher = more stable;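 also: lentivirally expressed fusions sorted by FACS into six bins by GFP to DsRed ratio, PSI derived from sequencing read proportions per bin multiplied by bin number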
Conditions: c terminus: a fixed tail appended
Please enter YES where protein stability index is greater than or equal to 2, and NO where it is lower.

Exam item: Determine whether measured protein stability index meets or exceeds 2 for NLDTEELCEYFPQHLGEYENVLAA [S12P]
Marked response: YES

Exam item: Determine whether measured protein stability index meets or exceeds 2 for NLNTEELCEYFSQHLGEYENVLAA [D3N]
Marked response: NO

Exam item: Determine whether measured protein stability index meets or exceeds 2 for NLDTEELCEYFHQHLGEYENVLAA [S12H]
Marked response: YES

Exam item: Determine whether measured protein stability index meets or exceeds 2 for NLDNEELCEYFSQHLGEYENVLAA [T4N]
Marked response: YES

Exam item: Determine whether measured protein stability index meets or exceeds 2 for NLDTEELCEDFSQHLGEYENVLAA [Y10D]
Marked response: YES

Exam item: Determine whether measured protein stability index meets or exceeds 2 for NLDTEELCEYFSQHLGEYENVAAA [L22A]
Marked response: YES

Exam item: Determine whether measured protein stability index meets or exceeds 2 for NLDTEELCEYFSQHLGKYENVLAA [E17K]
Marked response: NO

Exam item: Determine whether measured protein stability index meets or exceeds 2 for NLDTEELCEYFSQHLREYENVLAA [G16R]
Marked response: NO

Exam item: Determine whether measured protein stability index meets or exceeds 2 for NLDTEELCEYFSWHLGEYENVLAA [Q13W]
Marked response: YES

Exam item: Determine whether measured protein stability index meets or exceeds 2 for NLDTEELCEYFSQHLWEYENVLAA [G16W]
Marked response: YES

Exam item: Determine whether measured protein stability index meets or exceeds 2 for NLDSEELCEYFSQHLGEYENVLAA [T4S]
Marked response: YES

Exam item: Determine whether measured protein stability index meets or exceeds 2 for NLDTEELCEYFYQHLGEYENVLAA [S12Y]
Marked response: YES

Exam item: Determine whether measured protein stability index meets or exceeds 2 for NLDTCELCEYFSQHLGEYENVLAA [E5C]
Marked response: NO

Exam item: Determine whether measured protein stability index meets or exceeds 2 for NLDTEELQEYFSQHLGEYENVLAA [C8Q]
Marked response: YES

Exam item: Determine whether measured protein stability index meets or exceeds 2 for NPDTEELCEYFSQHLGEYENVLAA [L2P]
Marked response: NO

Exam item: Determine whether measured protein stability index meets or exceeds 2 for NLDTEELCEYFSQHLGEYENVLMA [A23M]
Marked response: YES

Exam item: Determine whether measured protein stability index meets or exceeds 2 for NLDMEELCEYFSQHLGEYENVLAA [T4M]
Marked response: YES

Exam item: Determine whether measured protein stability index meets or exceeds 2 for NLDTEELCEYFSQHLGEYTNVLAA [E19T]
Marked response: YES
